B1: APBB1IP (parent)
chain: SQVSMWDQRWQDHQPLLPITDVP

variants of: B1; assay: protein stability index of a GFP-peptide fusion (GPS, HEK-293T) (PSI 1-6); higher = more stable; conditions: c terminus: native;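 also: lentivirally expressed fusions sorted by FACS into six bins by GFP to DsRed ratio, PSI derived from sequencing read proportions per bin multiplied by bin number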
Would you mind telling me the reported protein stability index of each entry?
Write the number on its own, no unit after it.

Q: Which protein stability index is listed for SQVSMWDQRWQDHQPLLPISDVP [T20S] ?
Ans: 3.27

Q: Which protein stability index is listed for SQVSMWIQRWQDHQPLLPITDVP [D7I] ?
Ans: 1.04

Q: Which protein stability index is listed for SQVSMWDQRWQDHQPLLPITKVP [D21K] ?
Ans: 2.44

Q: Which protein stability index is listed for SQMSMWDQRWQDHQPLLPITDVP [V3M] ?
Ans: 2.83

Q: Which protein stability index is listed for SQVSMWDQRWQDHQPLLPWTDVP [I19W] ?
Ans: 1.36

Q: Which protein stability index is listed for SQVSMWDQRWQDHQPLLPITDSP [V22S] ?
Ans: 2.8

Q: Which protein stability index is listed for TQVSMWDQRWQDHQPLLPITDVP [S1T] ?
Ans: 2.04

Q: Which protein stability index is listed for SQVSMWDQRWQDVQPLLPITDVP [H13V] ?
Ans: 2.47

Q: Which protein stability index is listed for SQVSMWDQRWQDHQPLLPITDWP [V22W] ?
Ans: 2.19

Q: Which protein stability index is listed for SQHSMWDQRWQDHQPLLPITDVP [V3H] ?
Ans: 3.28

Q: Which protein stability index is listed for SQVSMWDQRWQDHQPLLPITQVP [D21Q] ?
Ans: 1.53

Q: Which protein stability index is listed for SQVSMWDQRWQDHQPLFPITDVP [L17F] ?
Ans: 2.06

Q: Which protein stability index is listed for SQVSMWDQRSQDHQPLLPITDVP [W10S] ?
Ans: 3.37

Q: Which protein stability index is listed for SQVSMWDQRWQDHQPLLPQTDVP [I19Q] ?
Ans: 2.87

Q: Which protein stability index is listed for SQVSMWDQRWQDHQPLLPITDEP [V22E] ?
Ans: 3.45

Q: Which protein stability index is listed for SQVSMWDQRRQDHQPLLPITDVP [W10R] ?
Ans: 3.03

Q: Which protein stability index is listed for SQVSMWDQRWHDHQPLLPITDVP [Q11H] ?
Ans: 1.67

Q: Which protein stability index is listed for SQVSVWDQRWQDHQPLLPITDVP [M5V] ?
Ans: 1.65

Q: Which protein stability index is listed for SQVSMWDQRWQDHHPLLPITDVP [Q14H] ?
Ans: 2.67

Q: Which protein stability index is listed for SQVSMRDQRWQDHQPLLPITDVP [W6R] ?
Ans: 3.29

Q: Which protein stability index is listed for SQVSMWDQFWQDHQPLLPITDVP [R9F] ?
Ans: 3.11

Q: Which protein stability index is listed for SQVSMWDQRWQDHQPMLPITDVP [L16M] ?
Ans: 2.53

Q: Which protein stability index is listed for SQVSMWDQRWQDHQPLLPDTDVP [I19D] ?
Ans: 4.17

Q: Which protein stability index is listed for SQVSMWDQRWQDHQPLWPITDVP [L17W] ?
Ans: 2.96

Q: Which protein stability index is listed for STVSMWDQRWQDHQPLLPITDVP [Q2T] ?
Ans: 2.54

Q: Which protein stability index is listed for SQVSMWDQRWQDHQPLLPITDVS [P23S] ?
Ans: 3.01

Q: Which protein stability index is listed for SQVSMWDQRWQDHQPLTPITDVP [L17T] ?
Ans: 2.58

Q: Which protein stability index is listed for SSVSMWDQRWQDHQPLLPITDVP [Q2S] ?
Ans: 1.88

Q: Which protein stability index is listed for SQVSMWDQRWQDHQKLLPITDVP [P15K] ?
Ans: 2.82

Q: Which protein stability index is listed for SQVWMWDQRWQDHQPLLPITDVP [S4W] ?
Ans: 2.01

Every entry's value here was drawn from the supplement of paper PMC10567573.
